The reported numbers originate from ChEMBL document CHEMBL4219124.

Documented AUC(0-t) at 24 h across a set of compounds
assay_explanation: AUC (0 to 24 hrs) in Dunkin-Hartley guinea pig at 10 mg/kg, po
Type: ADME, organism-based, Cavia porcellus
Design: time < 24 hr, dose 10 mg/kg, route oral
test_context: in vivo
Please give a number only; it is taken to be in ng·h/mL.

Previously resolved entries follow.
CC1(C)Cc2c(c(C(=O)Nc3ccc(F)c(C(F)(F)F)c3)cc3nc(Nc4c(F)cccc4Cl)[nH]c23)O1: 4120
Cc1cccc(Cl)c1Nc1nc2cc(C(=O)Nc3cc(C(F)(F)F)ccc3F)c3c(c2[nH]1)CC(C)(C)O3: 408

Shift focus to the following entry.
Ask: Give AUC(0-t) at 24 h for the following compound: CC1(C)Cc2c(c(C(=O)Nc3ccc(C(F)(F)F)cn3)cc3nc(Nc4c(Cl)cccc4Cl)[nH]c23)O1
Result: 639

* * *

assay_target: CYP2C9 (Homo sapiens)
Sequence (P11712 whole entry): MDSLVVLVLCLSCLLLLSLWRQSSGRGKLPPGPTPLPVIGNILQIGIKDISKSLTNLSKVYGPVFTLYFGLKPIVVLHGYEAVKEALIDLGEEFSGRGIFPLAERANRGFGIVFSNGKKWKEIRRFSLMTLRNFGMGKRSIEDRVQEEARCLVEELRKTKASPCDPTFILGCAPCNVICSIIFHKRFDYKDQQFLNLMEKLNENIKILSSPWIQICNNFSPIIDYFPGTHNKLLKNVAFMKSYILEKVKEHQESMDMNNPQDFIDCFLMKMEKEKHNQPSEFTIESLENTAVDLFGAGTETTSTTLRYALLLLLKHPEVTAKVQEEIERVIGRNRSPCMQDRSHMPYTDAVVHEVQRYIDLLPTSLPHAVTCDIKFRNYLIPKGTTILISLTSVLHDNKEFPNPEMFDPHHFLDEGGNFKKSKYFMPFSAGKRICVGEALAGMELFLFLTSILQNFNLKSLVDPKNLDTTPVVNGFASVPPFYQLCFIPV
assay_explanation: Inhibition of CYP2C9 in human liver microsomes at 10 uM after 20 mins in presence of NADPH by LC-MS/MS analysis
Type: ADME
Catalogue of inhibition at 20 min, 10 µM values
Put your answer as a value accompanied by its unit after it.

Solved cases (3 shown):
CC1(C)Cc2c(c(C(=O)Nc3cc(C(F)(F)F)ccc3F)cc3nc(Nc4c(F)cccc4Cl)[nH]c23)O1: 35%
Cc1cccc(Cl)c1Nc1nc2cc(C(=O)Nc3cc(C(F)F)ccc3F)c3c(c2[nH]1)CC(C)(C)O3: 28%
Cc1cccc(Cl)c1Nc1nc2cc(C(=O)Nc3cc(C(F)(F)F)ccc3F)c3c(c2[nH]1)CC(C)(C)O3: 15%

Ask: Find inhibition at 20 min, 10 µM for Cn1c(Nc2c(F)cccc2Cl)nc2cc(C(=O)Nc3ccc(C4CC4)cc3)c3c(c21)CC(C)(C)O3 on CYP2C9 (Homo sapiens) and write it down.
Result: 47%

* * *

assay_explanation: Cmax in Beagle dog at 10 mg/kg, po
Assay type: ADME, organism-based, Canis lupus familiaris
Parameters: dose 10 mg/kg, route oral
test_context: in vivo
measurement_type: Cmax
Please give the number followed by its unit.

CC1(C)Cc2c(c(C(=O)Nc3ccc(C(F)(F)F)cn3)cc3nc(Nc4c(Cl)cccc4Cl)[nH]c23)O1: 336 ng/mL
Cc1cccc(Cl)c1Nc1nc2cc(C(=O)Nc3cc(C(F)(F)F)ccc3F)c3c(c2[nH]1)CC(C)(C)O3: 843 ng/mL

Ask: Read the entry CC1(C)Cc2c(c(C(=O)Nc3ccc(F)c(C(F)(F)F)c3)cc3nc(Nc4c(F)cccc4Cl)[nH]c23)O1 and write its reported Cmax.
Result: 492 ng/mL

* * *

assay_target: Prostaglandin E synthase (Homo sapiens, UniProt O14684)
Sequence (O14684 whole entry): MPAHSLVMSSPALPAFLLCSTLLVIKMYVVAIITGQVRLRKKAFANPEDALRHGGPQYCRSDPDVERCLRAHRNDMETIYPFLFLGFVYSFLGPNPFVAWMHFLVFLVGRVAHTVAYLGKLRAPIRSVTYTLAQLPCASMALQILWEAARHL
assay_explanation: Inhibition of recombinant human mPGES1 expressed in CHO cells assessed as reduction in PGE2 production using PGH2 as substrate incubated for 10 mins followed by substrate addition measured for 1 min
Type: cell-based
pIC50: −log10 of the molar value.
Please note: y applies when pIC50 is 8 or greater, and n applies otherwise.

Reference set (3 entries):
CC1(C)Cc2c(c(C(=O)Nc3cc(C(F)(F)F)ccc3F)cc3nc(Nc4c(F)cccc4Cl)[nH]c23)O1: y
CC1(C)Cc2c(c(C(=O)Nc3ccc(F)c(C(F)(F)F)c3)cc3nc(Nc4c(F)cccc4Cl)[nH]c23)O1: y
Cc1cccc(Cl)c1Nc1nc2cc(C(=O)Nc3ccc(F)c(C(F)(F)F)c3)c3c(c2[nH]1)CC(C)(C)O3: y

Now consider a different molecule.
Ask: Please check the record Cc1cccc(Cl)c1Nc1nc2cc(C(=O)Nc3ccc(C(F)(F)F)cn3)c3c(c2[nH]1)CC(C)(C)O3 and state if its pIC50 is at or above 8.
Result: n
